The reported measurements were obtained from patent CN113912709A.

- SYSTEM UNDER TEST: T1, SARS-CoV-2 RBD protein L452R mutant (SARS-CoV-2, UniProt P0DTC2 319-541)
- T1 construct: domain: RBD
- TEST PROTOCOL: SPR, Biacore 8K, RBD on CM5 chip, IgG injected, 1:1 model
MEASUREMENT LABEL: Kd (nM)
Give bare numbers, in nM.

Consider the binder shown here: VacW-201 (antibody, V domains shown) VH: EVQLVESGGGLVQPGGSLRLSCAASGFTFSSYWMNWVRQAPGKGLEWVANIKQDGSEKYYVDSVKGRFTISRDNAKNSLYLQMNSLRAEDTAVYYCARMEYPYGGVDYWGQGTLVTVSS VL: NFMLTQPHSVSESPGKTVTISCTGSSGSIASNYVQWYQQRPGSAPTTVIYEDNQRPSGVPDRFSGSIDSSSNSASLTISGLKTEDEADYYCQSYDSSNRNWVFGGGTKLTVL What is its recorded Kd?
1.57

Consider the binder shown here: VacW-215 (antibody, V domains shown) VH: EVQLVESGGGLIQPGGSLRLSCAASGFTVSSNYMSWVRQAPGKGLEWVSVIYSGGSTYYADSVKGRFTISRDNSKNTLYLQMNSLRAEDTAVYYCARSTWLRGGFDYWGQGTLVTVSS VL: NFMLTQPHSVSESPGKTVTISCTGSSGSIASNYVQWYQQRPGSAPTTVIYEDNQRPSGVPDRFSGSIDSSSNSASLTISGLKTEDEADYYCQSYDSSNHFYVFGTGTKVTVL What is its recorded Kd?
0.714

Below: the item to evaluate.
Consider the binder shown here: VacW-212 (antibody, V domains shown) VH: EVQLVESGGGLVQPGGSLRLSCAASGFTFSSYWMNWVRQAPGKGLEWVANIKQDESEKYYVDSVKGRFTISRDNAKNSLFLQMNSLRVEDTAVYYCARMEYPYGGIDYWGQGTLVTVSA VL: NFMLTQPHSVSESPGKTVTISCTGSSGSIASNYVQWYQQRPGSAPTTVIYEDNQRPSGVPDRFSGSIDSSSNSASLTISGLKTEDEADYYCQSYDSSNRNWVFGGGTKLTVL What is its recorded Kd?
1.2
